System: CP217
Run Description: qHTS profiling for inhibitors of Plasmodium falciparum proliferation (AID 504749); note: nearly all actives have a fitted effect of over 60% in size
Assay Context: P. falciparum in erythrocytes, SYBR Green DNA, 72 h; series mostly up to 28.7 µM
Records with an inconclusive call do not appear. Activity calls are given as the source filed them. Calls come from the whole dose curve; as a rule, active = well fitted inhibition curve with a large enough effect; inconclusive = small, poorly fitted or top-dose-only effect; inactive = flat fitted curve, though single readings scatter.
Outcomes: active, inactive

- CC[C@@]1(O)C(=O)OCc2c1cc1n(c2=O)Cc2cc3c([N+](=O)[O-])cccc3nc2-1: active
- CN(C)CCCN1c2ccccc2C(C)(C)c2ccccc21: inactive
- CCCCCCCCCCCCCCCC(=O)OCC(COC(=O)CCCCCCCCCCCCCCC)OC(=O)CCCCCCCCCCCCCCC: inactive
- O=S(=O)(O)c1ccc2c(N=Nc3ccc(S(=O)(=O)O)c4ccccc34)c(O)c(S(=O)(=O)O)cc2c1: inactive
- CCCCC/C=C\C/C=C\CCCCCCCC(=O)O: inactive
- COC(=O)[C@H]1[C@H]2C[C@@H]3c4[nH]c5ccccc5c4CCN3C[C@H]2C[C@@H](OC(=O)c2cc(OC)c(OC)c(OC)c2)[C@@H]1OC: active
- CN=C(NC#N)Nc1ccc(C2=NNC(=O)C[C@@H]2C)cc1: inactive
- C#CCOc1ccc2c(C)cc(=O)oc2c1: inactive
- COC(=O)[C@H]1[C@H]2CC3c4[nH]c5ccccc5c4CCN3C[C@@H]2CC[C@@H]1O (stereo partly specified): inactive
- CC(C)N=c1cc2n(-c3ccc(Cl)cc3)c3ccccc3nc-2cc1Nc1ccc(Cl)cc1: inactive
- CCCCCC(CC)COC(=O)CC(C(=O)OCC(CC)CCCC)S(=O)(=O)O (stereo unspecified): inactive

----------
Tested on: CP265
Run Description: qHTS profiling for inhibitors of Plasmodium falciparum proliferation (AID 504749); note: nearly all actives have a fitted effect of over 60% in size
Assay Context: P. falciparum in erythrocytes, SYBR Green DNA, 72 h; series mostly up to 28.7 µM
Method: NIH National Institute of Allergy and Infectious Diseases [NIAID] NIH Chemical Genomics Center [NCGC] […] Because mature erythrocytes lack DNA, only Plasmodium-derived DNA is detected. NCGC Assay Protocol Summary: The SYBR Green viability assay was adapted from a method described previously (Plouffe et al., 2008). […] The following morning, fluorescence intensity at 485(14) nm excitation and 535(25) nm emission wavelengths was measured on an EnVision (Perkin Elmer) plate reader. […]
Results filed as inconclusive are left out. Active and inactive are the calls of the source. Calls follow the shape of the dose curve; as a rule, active = well fitted inhibition curve with a large enough effect; inconclusive = small, poorly fitted or top-dose-only effect; inactive = flat fitted curve, though single readings scatter.
Labels: active, inactive

- COCC(=O)Nc1cc(Sc2ccccc2)ccc1N=C(NC(=O)OC)NC(=O)OC: inactive
- CC1=C(/C=C/C(C)=C/C=C/C(C)=C/C=C/C=C(C)/C=C/C=C(C)/C=C/C2=C(C)C(=O)CCC2(C)C)C(C)(C)CCC1=O: inactive
- COc1ccc2c3c1O[C@H]1C[C@@H](O)C=C[C@@]31CCN(C)C2: inactive
- Nc1ncnc2c1ncn2[C@@H]1O[C@H](COP(=O)(O)OP(=O)(O)OP(=O)(O)O)[C@@H](O)[C@H]1O: inactive
- CO[C@H](C(=O)[C@@H](O)[C@@H](C)O)C1Cc2cc3cc(O[C@H]4C[C@@H](O[C@H]5C[C@@H](O)[C@H](O)[C@@H](C)O5)[C@@H](O)[C@@H](C)O4)c(C)c(O)c3c(O)c2C(=O)[C@H]1O[C@H]1C[C@@H](O[C@H]2C[C@@H](O[C@H]3C[C@](C)(O)[C@H](O)[C@@H](C)O3)[C@H](O)[C@@H](C)O2)[C@H](O)[C@@H](C)O1 (stereo partly drawn): active
- CN=C(NC#N)Nc1ccc(C2=NNC(=O)C[C@@H]2C)cc1: inactive
- COC(=O)[C@H]1[C@H]2C[C@@H]3c4[nH]c5ccccc5c4CCN3C[C@H]2C[C@@H](OC(=O)c2cc(OC)c(OC)c(OC)c2)[C@@H]1OC: active
- C=CCSSSCC=C: inactive
- Clc1cc(Cl)c(OCC#CI)cc1Cl: active
- CCCCCCCCCCCCCCCC(=O)OCC(COC(=O)CCCCCCCCCCCCCCC)OC(=O)CCCCCCCCCCCCCCC: inactive
- CN1C(=O)CN2CCc3ccccc3C2c2cc(Cl)ccc21 (stereo not drawn): inactive
- C=C1C(=CC=C2CCC[C@@]3(C)[C@@H]2CC[C@H]3[C@H](C)CCCC(C)C)C[C@@H](O)C[C@@H]1O: active
- CC1(C)C(C=C(Cl)Cl)C1C(=O)OCc1cccc(Oc2ccccc2)c1 (stereo not drawn): inactive
- O=C(O)CN(CCN(CC(=O)O)CC(=O)O)CC(=O)O: inactive
- O=C(O)c1cc(O)c2c(c1)[O][Bi][O]2: inactive
- CCOC(C)=O: inactive
- CCCCCC(CC)COC(=O)CC(C(=O)OCC(CC)CCCC)S(=O)(=O)O (stereo not drawn): inactive
- Cc1ccccc1: inactive
- CC(C)N=c1cc2n(-c3ccc(Cl)cc3)c3ccccc3nc-2cc1Nc1ccc(Cl)cc1: inactive
- CCCCCCCCCCCC[n+]1ccc2ccccc2c1: active
- COC(F)(F)C(Cl)Cl: inactive
- Cc1cn([C@H]2C[C@H](O)[C@@H](CO)O2)c(=O)[nH]c1=O: inactive
- CCCC(=O)O[C@]1(C(=O)CCl)[C@H](C)C[C@@H]2[C@H]3CCC4=CC(=O)C=C[C@]4(C)[C@@]3(F)C(=O)C[C@@]21C: active
- CCCCC/C=C\C/C=C\CCCCCCCC(=O)O: inactive
- CCCCCCCC(=O)O: inactive
- O=S(=O)(O)O: inactive
- CC[C@@]1(O)C(=O)OCc2c1cc1n(c2=O)Cc2cc3c([N+](=O)[O-])cccc3nc2-1: active
- Cc1c(C)c2c(c(C)c1O)CC[C@@](C)(CCC[C@H](C)CCC[C@H](C)CCCC(C)C)O2: inactive
- O=C(O)c1cc(=O)c2c3nc4ccccc4oc-3cc(=O)c2[nH]1: inactive
- Nc1c(Br)cc(Br)cc1CNC1CCC(O)CC1 (stereo not drawn): inactive
- CC(=O)Oc1c(C)cc(OCC(O)CNC(C)C)c(C)c1C (stereo not drawn): inactive
- CC1=C(/C=C/C(C)=C/C=C/C(C)=C/C=C/C=C(C)/C=C/C=C(C)/C=C/C2=C(C)CCCC2(C)C)C(C)(C)CCC1: inactive
- Cc1ccccc1OCC(O)CNCCOc1ccc(C(N)=O)cc1 (stereo not drawn): inactive
